pIC50 values for the compounds below.
molecular target: Cav3.2 (Homo sapiens (Human), UniProt O95180); assay: In vitro patch clamp assay (SyncroPatch 384PE); settings: HEK293 cells
Sequence (O95180 whole entry): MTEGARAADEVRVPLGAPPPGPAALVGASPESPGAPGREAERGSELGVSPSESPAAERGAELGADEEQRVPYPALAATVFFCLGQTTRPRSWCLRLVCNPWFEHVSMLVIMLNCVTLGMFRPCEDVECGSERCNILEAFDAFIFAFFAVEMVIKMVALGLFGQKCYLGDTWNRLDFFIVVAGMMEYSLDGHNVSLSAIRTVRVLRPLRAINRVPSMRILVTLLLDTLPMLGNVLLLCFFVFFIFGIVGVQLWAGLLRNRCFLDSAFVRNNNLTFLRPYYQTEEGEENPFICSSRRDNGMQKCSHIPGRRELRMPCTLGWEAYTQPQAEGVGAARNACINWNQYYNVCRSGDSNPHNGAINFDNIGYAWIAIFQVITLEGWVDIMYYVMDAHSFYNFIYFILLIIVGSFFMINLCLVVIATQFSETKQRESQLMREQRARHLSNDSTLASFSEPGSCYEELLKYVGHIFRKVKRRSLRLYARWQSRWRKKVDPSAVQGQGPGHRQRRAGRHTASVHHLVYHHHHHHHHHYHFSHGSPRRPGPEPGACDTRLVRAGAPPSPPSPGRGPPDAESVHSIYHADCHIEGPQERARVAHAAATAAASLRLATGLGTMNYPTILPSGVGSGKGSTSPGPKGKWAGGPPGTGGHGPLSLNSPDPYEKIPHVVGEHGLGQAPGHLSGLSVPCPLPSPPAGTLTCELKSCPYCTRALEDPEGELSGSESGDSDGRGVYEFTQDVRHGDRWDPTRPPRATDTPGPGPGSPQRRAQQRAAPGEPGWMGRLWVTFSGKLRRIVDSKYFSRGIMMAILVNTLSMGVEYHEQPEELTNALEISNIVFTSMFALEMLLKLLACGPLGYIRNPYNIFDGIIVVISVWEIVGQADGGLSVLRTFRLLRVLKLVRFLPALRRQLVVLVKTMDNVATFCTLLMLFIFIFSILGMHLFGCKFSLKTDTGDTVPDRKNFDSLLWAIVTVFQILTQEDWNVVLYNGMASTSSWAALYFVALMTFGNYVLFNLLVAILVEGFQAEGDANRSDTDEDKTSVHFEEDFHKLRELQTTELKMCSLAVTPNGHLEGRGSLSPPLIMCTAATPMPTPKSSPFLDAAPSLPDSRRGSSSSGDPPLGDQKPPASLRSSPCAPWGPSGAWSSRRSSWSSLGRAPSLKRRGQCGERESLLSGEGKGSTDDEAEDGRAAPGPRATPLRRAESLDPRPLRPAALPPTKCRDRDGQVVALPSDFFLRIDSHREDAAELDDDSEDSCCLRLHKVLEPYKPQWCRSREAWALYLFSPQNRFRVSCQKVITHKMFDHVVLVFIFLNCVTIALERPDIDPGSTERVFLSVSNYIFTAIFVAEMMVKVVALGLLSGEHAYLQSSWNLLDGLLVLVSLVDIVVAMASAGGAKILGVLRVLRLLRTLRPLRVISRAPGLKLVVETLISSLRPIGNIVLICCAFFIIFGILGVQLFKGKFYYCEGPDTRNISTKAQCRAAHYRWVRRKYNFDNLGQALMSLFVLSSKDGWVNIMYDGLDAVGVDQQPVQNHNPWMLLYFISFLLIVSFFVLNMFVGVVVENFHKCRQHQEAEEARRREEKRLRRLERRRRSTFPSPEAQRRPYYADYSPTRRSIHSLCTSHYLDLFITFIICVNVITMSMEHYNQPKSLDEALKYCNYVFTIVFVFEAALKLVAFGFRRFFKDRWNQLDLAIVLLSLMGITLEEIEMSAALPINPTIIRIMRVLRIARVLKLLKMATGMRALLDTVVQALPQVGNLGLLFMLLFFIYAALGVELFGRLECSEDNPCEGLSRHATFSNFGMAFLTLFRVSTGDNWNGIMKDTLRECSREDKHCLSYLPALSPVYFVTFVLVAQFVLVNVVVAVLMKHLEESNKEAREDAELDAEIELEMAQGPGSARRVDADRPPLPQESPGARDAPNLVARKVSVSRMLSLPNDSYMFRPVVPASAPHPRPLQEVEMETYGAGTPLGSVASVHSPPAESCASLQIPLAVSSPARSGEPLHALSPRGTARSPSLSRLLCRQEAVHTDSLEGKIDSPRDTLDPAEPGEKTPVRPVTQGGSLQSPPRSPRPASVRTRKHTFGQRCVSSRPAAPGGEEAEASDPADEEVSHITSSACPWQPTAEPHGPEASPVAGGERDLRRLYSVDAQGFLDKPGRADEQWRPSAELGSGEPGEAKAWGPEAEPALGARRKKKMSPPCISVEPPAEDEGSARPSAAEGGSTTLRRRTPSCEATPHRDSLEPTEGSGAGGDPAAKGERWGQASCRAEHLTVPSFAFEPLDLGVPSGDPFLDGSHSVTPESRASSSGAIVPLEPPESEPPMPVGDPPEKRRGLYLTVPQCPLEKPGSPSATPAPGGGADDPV
pIC50: −log10 of the molar value.

{"Cpd smiles": "C[C@@H](NC(=O)Cc1ccc(C2(C(F)F)CC2)nc1)c1cc2cnn(CC(F)(F)F)c2cn1", "Measured target": "Cav3.2 (Homo sapiens (Human), UniProt O95180)", "pIC50": 6.20}
{"Cpd smiles": "CC(C)c1ccc(CC(=O)N[C@H](C)c2cc3cnn(C)c3cn2)cc1", "Measured target": "Cav3.2 (Homo sapiens (Human), UniProt O95180)", "pIC50": 6.28}
{"Cpd smiles": "C[C@@H](NC(=O)Cc1ccc(C2(C(F)(F)F)CC2)cc1)c1cc2cnn(C)c2cn1", "Measured target": "Cav3.2 (Homo sapiens (Human), UniProt O95180)", "pIC50": 6.19}
{"Cpd smiles": "C[C@@H](NC(=O)Cc1ccc(C(F)(F)F)c(F)c1)c1cc2cnn(CC(F)(F)F)c2cn1", "Measured target": "Cav3.2 (Homo sapiens (Human), UniProt O95180)", "pIC50": 6.40}
{"Cpd smiles": "CCCn1cc2cc([C@@H](C)NC(=O)Cc3ccc(C(C)C)cc3)ncc2n1", "Measured target": "Cav3.2 (Homo sapiens (Human), UniProt O95180)", "pIC50": 5.62}
{"Cpd smiles": "CCn1ncc2cc([C@@H](C)NC(=O)Cc3ccc(C(C)C)cc3)ncc21", "Measured target": "Cav3.2 (Homo sapiens (Human), UniProt O95180)", "pIC50": 6.90}
{"Cpd smiles": "C[C@@H](NC(=O)Cc1ccc(C2(C(F)(F)F)CC2)cc1)c1cc2cnn(CC(F)(F)F)c2cn1", "Measured target": "Cav3.2 (Homo sapiens (Human), UniProt O95180)", "pIC50": 7.15}
{"Cpd smiles": "C[C@@H](NC(=O)Cc1ccc(C(C)(F)F)c(F)c1)c1cc2cnn(CC(F)(F)F)c2cn1", "Measured target": "Cav3.2 (Homo sapiens (Human), UniProt O95180)", "pIC50": 6.91}
